- EXPERIMENTAL_PROTOCOL: Selectivity index, ratio of CC50 for Wistar rat astrocytes to EC50 for human U-251 MG cells
ASSAY_READOUT: Ratio CC50/EC50
Lab note: record just the number, no unit beside it.

Sample CSc1ccc(C(=O)/C=C/c2ccc([N+](=O)[O-])o2)cc1 — what was its Ratio CC50/EC50? 2

Quick check: Ratio CC50/EC50 of C[N+](=O)c1ccc(/C=C/C(=O)c2ccc(N3CCOCC3)cc2)o1 ? 2

What value of Ratio CC50/EC50 has been reported for the following compound? O=C(/C=C/c1ccc([N+](=O)[O-])o1)c1ccc(-n2ccnc2)cc1 2

Please give the measured Ratio CC50/EC50 for this compound: O=C(/C=C/c1ccc([N+](=O)[O-])o1)c1ccc(C2CCCCC2)cc1 13

Recorded Ratio CC50/EC50 of O=C(/C=C/c1ccc([N+](=O)[O-])o1)c1ccc(N2CCCC2)cc1 , please. 1.8
